Collected Ki for Histamine H3 receptor (Rattus norvegicus) across several studies; compounds listed below.
valueKind: Ki (nM)

-- ask Value lookup for Ki; key = `CNCCN(c1ccccc1)c1ccc(OCCN2CCCC2)cc1`
-- reply 5.4

-- ask Next compound: `O=C1CCC(c2ccc(OCCCN3CCCCC3)cc2)=NN1CC(F)(F)F`
-- reply 62

-- ask Next compound: `c1cc(-c2ccc(CNC3CCCCC3)cc2)ccc1CNC1CCCCC1`
-- reply 2090

-- ask Next compound: `C[C@@H]1CCCN1CCCOc1ccc(C(=O)CN2CCN(C(=O)c3cccs3)CC2)cc1`
-- reply 9

-- ask Next compound: `C[C@@H]1CCCN1CCCOc1ccc(C2=NN(CC(F)(F)F)C(=O)CC2)cc1`
-- reply 10

-- ask Next compound: `O=C1CCC(c2ccc(OC3CCN(C4CCC4)CC3)cc2)=NN1`
-- reply 6.7

a. CCCCCC(=O)c1ccc(OCCCN2CCN(C(=O)CSCC)CC2)cc1
b. c1ccc2c(NCCCN3CCCC3)c3c(nc2c1)CCCCC3
-- ask Select one. Lower Ki: a or b Answer with the label corresponding to your selection.
-- reply b

I. C[C@H]1CCCN1CCN1CCN(CCN2CCC[C@@H]2C)C1=C(C#N)C#N
II. C[C@@H]1CCCN1CCc1ccc(-c2ccc(S(=O)(=O)C3CCOCC3)cc2)cc1
III. CN1CCc2ccc(OCCCN3CCC(O)CC3)cc2C1=O
IV. CCCCCC(=O)c1ccc(OCCCN2CCN(C(=O)N3CCCC3)CC2)cc1
-- ask List items by Ki in falling order. Output spec: a listing of the labels in the requested order.
-- reply III, IV, II, I

1. CC(C)S(=O)(=O)N1C[C@@H]2CC=C(c3ccc(CCN4CCCC4)cc3)[C@@H]2C1
2. COCCS(=O)(=O)c1ccc(-c2ccc(CCN3CCC[C@H]3C)cc2)cc1
-- ask Sort 1 and 2 by Ki descending and give the first. Answer with the label corresponding to your selection.
-- reply 1

a. Cn1ncc(-c2ccc(OCCCN3CCCCCC3)cc2)cc1=O
b. CNCCC(c1ccccc1)c1ccc(O)c2ccc(OCCN3CCCC3)cc12 (stereo unspecified)
-- ask Sort a and b by Ki descending and give the first. Answer with the label corresponding to your selection.
-- reply b

1. CC(C)C1CCCN1CCc1ccc2cc(-c3ccc(C#N)cc3)ccc2c1 (stereo unspecified)
2. N#CC[C@@H](N)C(=O)N1CCN(CCCOc2ccc(C(=O)C3CC3)cc2)CC1
3. C[C@@H](NC(=O)c1cccc(F)c1)C(=O)N1CCN(CCCOc2ccc(-c3noc(CC4CCCC4)n3)c(F)c2)CC1
-- ask Ordering: ascending Ki. Output spec: a listing of the labels in the requested order.
-- reply 3, 2, 1

---

Collected Ki for Histamine H3 receptor (Rattus norvegicus) across several studies; molecules listed below.
valueKind: Ki (nM)

The cases that follow already have their Ki on record.
-- ask Value lookup for Ki; key = `C[C@]12CC[C@@H]3c4ccc(OCCCCN5CCCC5)cc4CC[C@H]3[C@@H]1CC[C@@H]2N1CCCC1`
-- reply 24.8

-- ask Next molecule: `CCCCCC(=O)c1ccc(OCCCN2CCN(C(=O)C3CCC3)CC2)cc1`
-- reply 3.16

-- ask Next molecule: C[C@@H]1CCCN1CCCOc1ccc(C2=NNC(=O)C3CC23)cc1 (stereo not given in full)
-- reply 13

-- ask Next molecule: C[C@]12CC[C@@H]3c4ccc(OCCCN5CCC(O)C5)cc4CC[C@H]3[C@@H]1CC[C@@H]2N1CCCC1 (stereo not given in full)
-- reply 16.8

-- ask Next molecule: `CC(C)N[C@H](C)C(=O)N1CCN(CCCOc2ccc(C(=O)C3CC3)cc2)CC1`
-- reply 8.71

I. Nc1nc2c(c(N3CCNCC3)n1)CCCCC2c1ccccc1 (stereo not given)
II. C[C@@H](NC(=O)c1ccc(O)cc1)C(=O)N1CCN(CCCOc2ccc(-c3noc(CC4CCCC4)n3)c(F)c2)CC1
III. CC(C)(O)COc1ccc2c(c1)CCC1(CCN(C3CCC3)CC1)O2
-- ask List items by Ki in falling order. Output spec: a listing of the labels in the requested order.
-- reply I, III, II

P. CCCCCC(=O)c1ccc(OCCCN2CCN(CCCC)CC2)cc1
Q. N#CC(C#N)=C1N(CCCN2CCCCC2)CCN1Cc1cccc2ccccc12
R. C[C@@H]1CCCN1CCc1cc2cc(CNc3ccc(Cl)nn3)ccc2o1
S. C[C@@H]1CCCN1CCCOc1ccc2c(c1)CCC1CC(=O)NN=C21 (mixture of isomers)
-- ask Ordering: ascending Ki. Output spec: a listing of the labels in the requested order.
-- reply R, P, S, Q
(R: 1.58 nM, P: 13.5 nM, S: 53 nM, Q: 690 nM)

A. C(CCCCN1CCCCC1)CCCCN1CCCCC1
B. Cc1n[nH]c(=O)cc1-c1ccc(OC2CCN(C3CCC3)CC2)cc1
-- ask Sort A and B by Ki descending and give the first. Answer with the label corresponding to your selection.
-- reply A

I. Nc1nc2c(c(N3CCNCC3)n1)CCC1=C2[C@@H]2CCCC[C@@H]2O1 (relative stereo)
II. C[C@@H]1CCCN1CCCOc1ccc(C(=O)CN2CCOCC2)cc1
-- ask Select one. Lower Ki: I or II Answer with the label corresponding to your selection.
-- reply I

a. CCCC[C@@H](c1ccc(-c2ccc(CN3CCCCC3)cc2)cc1)N1CCCC[C@@H]1C
b. Cc1cc(-c2ccc(OCCCN3CCC[C@H]3C)cc2)n[nH]c1=O
-- ask Select one. Lower Ki: a or b Answer with the label corresponding to your selection.
-- reply b

a. O=C(c1ccc(OCCCN2CCN(C(=O)[C@H]3CCCN3)CC2)cc1)C1CC1
b. N[C@H](CCc1ccccc1)C(=O)N1CCN(CCCOc2ccc(C(=O)C3CC3)cc2)CC1
c. CN(C)C(=O)N1C[C@@H]2CC=C(c3ccc(CCN4CCCC4)cc3)[C@@H]2C1
d. C[C@@H]1CCCN1CCCOc1ccc(-c2cn[nH]c(=O)c2)cc1
e. CC1CCN(CCCOc2ccc3c(c2)C(=O)N(C)CC3)CC1
-- ask Ordering: ascending Ki. Output spec: a listing of the labels in the requested order.
-- reply b, d, c, a, e
(b: 4.57 nM, d: 8.5 nM, c: 13 nM, a: 30.2 nM, e: 279 nM)

A. CN(C)[C@@H]1CCN(CCCOc2ccc(-c3ccc(C(=O)N4CCOCC4)cc3)cc2)C1
B. CCOC(=O)N1CCN(CCCOc2ccc(C(=O)c3ccc(SC)cc3)cc2)CC1
C. Cn1nc(-c2ccc(C(=O)N3CCN(C4CCCC4)CC3)cc2)ccc1=O
D. CC1CCN(CCCOc2ccc(-c3ccc(C(=O)N4CCCC4)cc3)cc2)CC1
-- ask List items by Ki in falling order. Output spec: a listing of the labels in the requested order.
-- reply C, B, A, D
(C: 186 nM, B: 58.9 nM, A: 27.5 nM, D: 10.2 nM)

a. c1cc(-c2ccc(CN3CCOCC3)cc2)ccc1CN1CCOCC1
b. CN(CCc1ccc2cc(-c3ccc(C#N)cc3)ccc2c1)C(C)(C)C
c. CS(=O)(=O)N1CCC(Oc2ccc3c(c2)CCC2(CCN(C4CCC4)CC2)O3)CC1
d. C[C@@H]1CCCN1CCN1CCN(CCN2CCC[C@H]2C)C1=C(C#N)C#N
-- ask Ordering: ascending Ki. Output spec: a listing of the labels in the requested order.
-- reply d, c, b, a
(d: 1.1 nM, c: 17 nM, b: 27.9 nM, a: 81.3 nM)

---

Collected pKi for Histamine H3 receptor (Rattus norvegicus, UniProt Q9QYN8) across several studies; compounds listed below.
pKi: −log10 of the molar value.
valueKind: pKi

The cases that follow already have their pKi on record.
-- ask Value lookup for pKi; key = `c1ccc(CN2CCCc3cc(OCCCN4CCCCC4)ccc3C2)cc1`
-- reply 9.10

-- ask Next compound: `C[C@@H](NC(=O)c1ccco1)C(=O)N1CCCN(CCCOc2ccc(-c3noc(C4CCCC4)n3)c(F)c2)CC1`
-- reply 9.07

-- ask Next compound: `CCN(CC)C(=O)c1ccc(-c2ccc(OCCCN3CCC(C)CC3)cc2)cc1`
-- reply 8.04

-- ask Next compound: `N#Cc1ccc(-c2ccc3cc(CCN4CCC[C@@H]4CO)ccc3c2)cc1`
-- reply 7.37

P. CC(C)C(=O)N[C@H](C)C(=O)N1CCCN(CCCOc2ccc(-c3noc(CC4CCCC4)n3)c(F)c2)CC1
Q. N[C@@H]1[C@H]2CN(CCCNc3c4c(nc5ccccc35)CCCCC4)C[C@@H]12
R. N#CC(C#N)=C1N(CCCN2CCCCC2)CCN1CCN1CCCCC1
S. CCNC(=O)[C@H]1C[C@H](OC)[C@@]2(C)CC[C@@H]3c4ccc(OCCCN5CCC[C@H]5C)cc4CC[C@H]3[C@H]12
-- ask List items by pKi in falling order. Output spec: a listing of the labels in the requested order.
-- reply P, R, S, Q
(P: 8.89, R: 8.20, S: 7.55, Q: 7.13)
